Known PanDDA run, DMSO background map: 1-BDC of a selection of compounds
Target: SARS-CoV-2 NSP3 macrodomain (Mac1) (Severe acute respiratory syndrome coronavirus 2)
Format: binding
Conditions: DMSO background map; event 1; soak concentration 10 mM
MEASUREMENT_TYPE: PanDDA run, DMSO background map: 1-BDC

[
  {
    "COMPOUND": "CCn1c(C)nnc1Sc1cnc2ccccc2n1 [AVI-297]",
    "VAL": 0.05
  },
  {
    "COMPOUND": "c1ccc(-n2nnnc2CSc2nnc(NC3CC3)s2)cc1 [AVI-286]",
    "VAL": 0.11
  },
  {
    "COMPOUND": "CC1CC(C(=O)O)CCN1C(=O)c1ccc2c(c1)OCC(=O)N2 (stereo not shown) [AVI-303]",
    "VAL": 0.13
  },
  {
    "COMPOUND": "Nc1nnc(SCCn2c(=O)oc3ccccc32)s1 [AVI-296]",
    "VAL": 0.06
  },
  {
    "COMPOUND": "CC(C)n1nnnc1SCc1c(C(=O)O)sc2cccc(F)c12 [AVI-291]",
    "VAL": 0.25
  },
  {
    "COMPOUND": "O=C(O)C(c1ccccc1)n1sc2ccccc2c1=O (stereo not shown) [AVI-288]",
    "VAL": 0.26
  },
  {
    "COMPOUND": "O=C(O)C1CCCN1S(=O)(=O)c1cccc2nsnc12 (stereo not shown) [AVI-2]",
    "VAL": 0.2
  }
]

---

Target: SARS-CoV-2 NSP3 macrodomain (Mac1) (Severe acute respiratory syndrome coronavirus 2)
Format: binding
Conditions: refined crystallographic occupancy
Classify: fulfilled when Refined ligand occupancy (%) is strictly less than 40%; not fulfilled when Refined ligand occupancy (%) is not.

[
  {
    "MOLECULE": "CC1CCN(C(=O)c2ccc3c(c2)nc(CO)n3C)CC1C(=O)O (centres unmarked) [AVI-348]",
    "CLASS_LABEL": "not fulfilled"
  },
  {
    "MOLECULE": "OCC(Nc1ncnc2[nH]ccc12)C1CCC1 (centres unmarked) [AVI-3638]",
    "CLASS_LABEL": "fulfilled"
  },
  {
    "MOLECULE": "OCC(Nc1ncnc2[nH]ccc12)C1CCCC1 (centres unmarked) [AVI-3649]",
    "CLASS_LABEL": "fulfilled"
  },
  {
    "MOLECULE": "Cn1cc(CC(CO)Nc2ncnc3[nH]ccc23)cn1 (centres unmarked) [AVI-3657]",
    "CLASS_LABEL": "fulfilled"
  },
  {
    "MOLECULE": "OCCC(CO)Nc1ncnc2[nH]ccc12 (centres unmarked) [AVI-3734]",
    "CLASS_LABEL": "not fulfilled"
  },
  {
    "MOLECULE": "CCC(Nc1ncnc2[nH]ccc12)C(C)O (centres unmarked) [AVI-3635]",
    "CLASS_LABEL": "fulfilled"
  },
  {
    "MOLECULE": "CC1CCN(c2ncnc3[nH]ccc23)C1CO (centres unmarked) [AVI-3655]",
    "CLASS_LABEL": "not fulfilled"
  },
  {
    "MOLECULE": "OCC1COCCN1c1ncnc2[nH]ccc12 (centres unmarked) [AVI-3717]",
    "CLASS_LABEL": "fulfilled"
  },
  {
    "MOLECULE": "CCCC(CO)Nc1ncnc2[nH]ccc12 (centres unmarked) [AVI-3643]",
    "CLASS_LABEL": "fulfilled"
  }
]

The reported measurements were obtained from paper PMC12118597.
